B1: PSD2 (parent)
chain: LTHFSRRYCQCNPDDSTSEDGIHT

Variants of: B1
method: protein stability index of a GFP-peptide fusion (GPS, HEK-293T) (PSI 1-6); higher = more stable;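 also: lentivirally expressed fusions sorted by FACS into six bins by GFP to DsRed ratio, PSI derived from sequencing read proportions per bin multiplied by bin number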
condition_parameters: c terminus: a fixed tail appended
In this section we review reported protein stability index values for a set of variants.

ordered_residues: LFHFSRRYCQCNPDDSTSEDGIHT [T2F]
protein stability index: 2.63
--
ordered_residues: LTHFSRRYCQCNPDDSTEEDGIHT [S18E]
protein stability index: 3.17
--
ordered_residues: LTHFSRRYCQCNPMDSTSEDGIHT [D14M]
protein stability index: 2.27
--
ordered_residues: LTHFSRRYCQCNPDDSTSEDGIHS [T24S]
protein stability index: 3.02
--
ordered_residues: LTHFSRRYCQCNPDDSESEDGIHT [T17E]
protein stability index: 3.41
--
ordered_residues: LTHFHRRYCQCNPDDSTSEDGIHT [S5H]
protein stability index: 3.36
--
ordered_residues: LTHASRRYCQCNPDDSTSEDGIHT [F4A]
protein stability index: 4.42
--
ordered_residues: LTHFSRRYCQCNPDDSTSEDGIVT [H23V]
protein stability index: 2.93
--
ordered_residues: LTHFSRRYCQCNPDDETSEDGIHT [S16E]
protein stability index: 3.96
--
ordered_residues: LRHFSRRYCQCNPDDSTSEDGIHT [T2R]
protein stability index: 2.63
--
ordered_residues: LTHFSRRYCQCNPDDPTSEDGIHT [S16P]
protein stability index: 2.86
--
ordered_residues: LTHTSRRYCQCNPDDSTSEDGIHT [F4T]
protein stability index: 4.07
--
ordered_residues: LTHFSRRYCQCNPDDSTSEDGLHT [I22L]
protein stability index: 3.24
--
ordered_residues: LTHFSRRYCQCNPDDSTTEDGIHT [S18T]
protein stability index: 2.57
--
ordered_residues: LTPFSRRYCQCNPDDSTSEDGIHT [H3P]
protein stability index: 3.03
--
ordered_residues: LTHFSRRYEQCNPDDSTSEDGIHT [C9E]
protein stability index: 4.16
--
ordered_residues: LKHFSRRYCQCNPDDSTSEDGIHT [T2K]
protein stability index: 2.47
--
ordered_residues: LTHFSRRYCQCNPDDSTSEQGIHT [D20Q]
protein stability index: 2.61
--
ordered_residues: LTHFSHRYCQCNPDDSTSEDGIHT [R6H]
protein stability index: 3.93
--
ordered_residues: LTHFSRRYCECNPDDSTSEDGIHT [Q10E]
protein stability index: 3.87
--
ordered_residues: LTHFSRRYCQCNPDDDTSEDGIHT [S16D]
protein stability index: 3.17
--
ordered_residues: LTHFSRRYCQCNPVDSTSEDGIHT [D14V]
protein stability index: 2
--
ordered_residues: LTHFSRRYCQCSPDDSTSEDGIHT [N12S]
protein stability index: 4.01
--
ordered_residues: LTHFSRRVCQCNPDDSTSEDGIHT [Y8V]
protein stability index: 3.8
--
ordered_residues: LTHFSRRYCQCNPDDSTSEDTIHT [G21T]
protein stability index: 4.09
--
ordered_residues: STHFSRRYCQCNPDDSTSEDGIHT [L1S]
protein stability index: 3.7
--
ordered_residues: LTHFDRRYCQCNPDDSTSEDGIHT [S5D]
protein stability index: 4.38
--
ordered_residues: LTHFSRRYCQCNPDDSRSEDGIHT [T17R]
protein stability index: 2.78
--
ordered_residues: LTHFSRNYCQCNPDDSTSEDGIHT [R7N]
protein stability index: 3.75
--
ordered_residues: LTHFRRRYCQCNPDDSTSEDGIHT [S5R]
protein stability index: 2.53
--
ordered_residues: LTHFSRRYCQCNPDDSSSEDGIHT [T17S]
protein stability index: 2.78
--
ordered_residues: LTQFSRRYCQCNPDDSTSEDGIHT [H3Q]
protein stability index: 3.47
--
ordered_residues: LTHFSRRYCQCNPHDSTSEDGIHT [D14H]
protein stability index: 2.14
--
ordered_residues: LTHFSRRYCQCNPDDSTSEPGIHT [D20P]
protein stability index: 2.35
--
ordered_residues: LTHFSRRYCQCNPDDSTSEDGIHM [T24M]
protein stability index: 2.52
--
ordered_residues: LTHFSRRYCQCNPDDSTSEDGINT [H23N]
protein stability index: 3.64
--
ordered_residues: LTHFSRRYCQCNPDDSTSELGIHT [D20L]
protein stability index: 2.31
--
ordered_residues: LTHFSRPYCQCNPDDSTSEDGIHT [R7P]
protein stability index: 4.46
--
ordered_residues: LTHFWRRYCQCNPDDSTSEDGIHT [S5W]
protein stability index: 1.94
--
ordered_residues: LTHSSRRYCQCNPDDSTSEDGIHT [F4S]
protein stability index: 3.61
--
ordered_residues: LTHFSRRYCQRNPDDSTSEDGIHT [C11R]
protein stability index: 4.18
--
ordered_residues: LMHFSRRYCQCNPDDSTSEDGIHT [T2M]
protein stability index: 2.86
--
ordered_residues: VTHFSRRYCQCNPDDSTSEDGIHT [L1V]
protein stability index: 3.77
--
ordered_residues: LTHFFRRYCQCNPDDSTSEDGIHT [S5F]
protein stability index: 2.18
--
ordered_residues: LTHFSRRYCQCNPDDYTSEDGIHT [S16Y]
protein stability index: 2.88
--
ordered_residues: LTHFSRRYCQCNPCDSTSEDGIHT [D14C]
protein stability index: 2.8
--
ordered_residues: LTHFSRRYCQCNPDDSTSEDGICT [H23C]
protein stability index: 3.16
--
ordered_residues: LTHFYRRYCQCNPDDSTSEDGIHT [S5Y]
protein stability index: 2.27
--
ordered_residues: LTHFSRRYSQCNPDDSTSEDGIHT [C9S]
protein stability index: 4.78
--
ordered_residues: LTHFSRRYCQCNPDHSTSEDGIHT [D15H]
protein stability index: 2.86
--
ordered_residues: LTHFSRRYCQCNKDDSTSEDGIHT [P13K]
protein stability index: 3.02
--
ordered_residues: LTHFSIRYCQCNPDDSTSEDGIHT [R6I]
protein stability index: 2.75
--
ordered_residues: LTFFSRRYCQCNPDDSTSEDGIHT [H3F]
protein stability index: 2.16
--
ordered_residues: LTHFSRRYCQCNPDDSTSEDGIHL [T24L]
protein stability index: 2.38
--
ordered_residues: LTHFSRRYCQCPPDDSTSEDGIHT [N12P]
protein stability index: 3.63
--
ordered_residues: LTHFSRRYCCCNPDDSTSEDGIHT [Q10C]
protein stability index: 2.63
--
ordered_residues: LTHFSRRYCQENPDDSTSEDGIHT [C11E]
protein stability index: 4.38
--
ordered_residues: LTHFTRRYCQCNPDDSTSEDGIHT [S5T]
protein stability index: 3.42
--
ordered_residues: LTHFSRRYCQCNPDDSTSKDGIHT [E19K]
protein stability index: 2.81
--
ordered_residues: LTHFSRRYCQNNPDDSTSEDGIHT [C11N]
protein stability index: 4.41
--
ordered_residues: LTHFSRRYCQCNADDSTSEDGIHT [P13A]
protein stability index: 2.83
--
ordered_residues: LTHFSRRYCQCNPDDGTSEDGIHT [S16G]
protein stability index: 3.09
--
ordered_residues: LTHFSQRYCQCNPDDSTSEDGIHT [R6Q]
protein stability index: 3.49
--
ordered_residues: FTHFSRRYCQCNPDDSTSEDGIHT [L1F]
protein stability index: 2.72
--
ordered_residues: LTHFSRRYCQCNPDDSTSRDGIHT [E19R]
protein stability index: 1.59
--
ordered_residues: LTHFSRRYCQCNPDDSTSENGIHT [D20N]
protein stability index: 2.5
--
ordered_residues: LTHFSRRYCQCNPDDSTSLDGIHT [E19L]
protein stability index: 2.15
--
ordered_residues: LTHFSRRYCQCNPDDWTSEDGIHT [S16W]
protein stability index: 1.77
--
ordered_residues: LTHFSRRYCQCNPDDSTSTDGIHT [E19T]
protein stability index: 3.02
--
ordered_residues: LTHFSRRYYQCNPDDSTSEDGIHT [C9Y]
protein stability index: 4.06
--
ordered_residues: LTHFSRRYCQCNPDDSTMEDGIHT [S18M]
protein stability index: 2.97
--
ordered_residues: LTHFSRRYCQCNPDDSTSEDFIHT [G21F]
protein stability index: 2.69
--
ordered_residues: LTHFSRRYCQCNPDDSTSEDGIHE [T24E]
protein stability index: 4.08
--
ordered_residues: LTHFSRRYCQCNPDDSTSEEGIHT [D20E]
protein stability index: 3.64
--
ordered_residues: LTHFSRRYCQCNPTDSTSEDGIHT [D14T]
protein stability index: 2.13
--
ordered_residues: LTHFSRRYVQCNPDDSTSEDGIHT [C9V]
protein stability index: 4.13
--
ordered_residues: LTHFSRRYCQCNPDDSTSEIGIHT [D20I]
protein stability index: 1.97
--
ordered_residues: LTHLSRRYCQCNPDDSTSEDGIHT [F4L]
protein stability index: 3.5
--
ordered_residues: LTHFSRRYCQCWPDDSTSEDGIHT [N12W]
protein stability index: 3.13
--
ordered_residues: LTHFSRRYCQCNPDDSTSEDGTHT [I22T]
protein stability index: 3.59
--
ordered_residues: LTHFSRRYCQCNPDDSTSEWGIHT [D20W]
protein stability index: 1.46
--
ordered_residues: LTHFSRRYCQCNPDDSFSEDGIHT [T17F]
protein stability index: 2.77
--
ordered_residues: LTHFSRRYCQCNTDDSTSEDGIHT [P13T]
protein stability index: 3.5
--
ordered_residues: LTHFSRRYCYCNPDDSTSEDGIHT [Q10Y]
protein stability index: 3.01
--
ordered_residues: LTWFSRRYCQCNPDDSTSEDGIHT [H3W]
protein stability index: 2.16
--
ordered_residues: LTHFSRRYCQCNPDDSTSEDGIHQ [T24Q]
protein stability index: 3.37
--
ordered_residues: LTHFSRRYCQCNPDDSTSEDGIPT [H23P]
protein stability index: 3.9
--
ordered_residues: LTHFSRRYCQGNPDDSTSEDGIHT [C11G]
protein stability index: 4.56
--
ordered_residues: LTHFSRRYCQCNPDDSTSEDGIQT [H23Q]
protein stability index: 3.73
--
ordered_residues: LEHFSRRYCQCNPDDSTSEDGIHT [T2E]
protein stability index: 4.41
--
ordered_residues: LTHFSRRYCQCNPDKSTSEDGIHT [D15K]
protein stability index: 2.28
